Would you kindly list Potency for each of these molecules?
Test: qHTS Screen of the MIPE 4.0 Collection Against Ewings Sarcoma (TC71) (AID 1259253); also: potency is read from the fitted curve at half-maximal effect; nearly all actives have a fitted effect of over 40% in size
Details: TC71 Ewing sarcoma viability, CellTiter-Glo, 48 h; series mostly up to 45.8 µM
Procedure: There is a large unmet medical need for treatments for Ewing sarcoma, a pediatric sarcoma. […] Using the NCATS developed oncology compound library called the Mechanism of Interrogation Plate (MIPE), four Ewing sarcoma cell lines were evaluated (TC32, TC71, RDES, EW8). Compounds, in a 12-point titration series, were incubated with cells for 48 hours and the read out was cell viability (CellTiter-Glo from Promega). […]
Inconclusive results are not listed. Activity calls are given as the source filed them. Calls follow the shape of the dose curve; as a rule, active = well fitted inhibition curve with a large enough effect; inconclusive = small, poorly fitted or top-dose-only effect; inactive = no such curve, though single readings can be large or run the other way.

molecule	readout	test-result
CCC(=C(c1ccccc1)c1ccc(OCCN(C)C)cc1)c1ccccc1	Potency	16.6 µM (active)

Would you mind giving Potency for every molecule in the list below?
1. O=c1[nH]nc(Sc2ncc([N+](=O)[O-])s2)n1-c1ccc2c(c1)OCCO2
2. CC(C)(C)c1cnc(CSc2cnc(NC(=O)C3CCNCC3)s2)o1

Ans.
1: 6.62 µM (active); 2: 0.187 µM (active)

Could you report Potency for every entry in the following list?
1. CN1CCC(CNc2ccc3ncc(-c4cccc(OC(F)(F)F)c4)n3n2)CC1
2. CC[C@@H]1C(=O)N(C)c2cnc(Nc3ccc(C(=O)NC4CCC(N5CCN(CC6CC6)CC5)CC4)cc3OC)nc2N1C(C)C (stereo not given in full)

Ans.
["16.6 µM (active)", "0.118 µM (active)"]

---

system: HaCat; assay: Cytotoxic Profiling of Annotated Libraries Using Quantitative High-Throughput Screening (AID 1296008); details: Five cell lines viability, CellTiter-Glo ATP luminescence, 48-72 h; also: nearly all actives have a fitted effect of over 60% in size
Results filed as inconclusive are left out. The source made the active and inactive calls. The call rests on the fitted dose curve; in most records, active means well fitted inhibition curve with a large enough effect; inconclusive means small, poorly fitted or top-dose-only effect; inactive means flat fitted curve, though single readings scatter.
Please reply with one of these outcomes: 1 for active, 0 for inactive

compound	system-tested	discrete-label
Cc1coc2c1C(=O)C(=O)c1c-2ccc2c1CCCC2(C)C	HaCat	0
Cc1nc2ccc(CN(C)c3ccc(C(=O)N[C@@H](CCC(=O)O)C(=O)O)s3)cc2c(=O)[nH]1	HaCat	1
CN(C1CCc2c(c3ccccc3n2CC(=O)O)C1)S(=O)(=O)c1ccc(F)cc1 (stereo not given)	HaCat	0
COc1cc2c(Nc3ccc(NC(=O)c4ccccc4)cc3)ncnc2cc1OCCCN1CCOCC1	HaCat	1
CC(C)(C)c1cnc(CSc2cnc(NC(=O)C3CCNCC3)s2)o1	HaCat	1
CN(C)Cc1c(C(=O)NCCOc2ccc(C(=O)NO)cc2)oc2ccccc12	HaCat	1
Cn1cc(-c2ccncc2)c(-c2ccc(OCc3ccc4ccccc4n3)cc2)n1	HaCat	0
Cc1ccc(C(=O)Nc2cccc(C(F)(F)F)c2)cc1-c1ccc2nc(NCCN3CCOCC3)ncc2c1	HaCat	1

// switching to the query compound
Qu. So what was the verdict on Cc1nc(Nc2n[nH]c3c2CN(C(=O)N[C@H](CN(C)C)c2ccccc2)C3(C)C)c2sccc2n1 in this test?
Ans. 1

---

test: Quantitative High-Throughput drug screen in 47 multiple myeloma cell lines against the NCATS MIPE library collection: KMS28BM_JCRB cell viability assay (AID 1919874); details: CellTiter-Glo ATP, 48 h; series mostly up to 45.8 µM; also: nearly all actives have a fitted effect of over 35% in size; also: potency is read from the fitted curve at half-maximal effect
Inconclusive results are not listed. Activity calls are given as the source filed them. The call rests on the fitted dose curve; in most records, active means well fitted cell-killing curve with a large enough effect; inconclusive means small, poorly fitted or top-dose-only effect, or effect the other way; inactive means no such curve, though single readings can be large or run the other way.
readout: Potency

Known Potency results, listed for orientation:
compound-smiles	Potency
COc1cccc(Nc2c(C(N)=O)cnc3c(C)cc(S(=O)(=O)c4cccc(C(=O)N(C)C)c4)cc23)c1	inactive
CC(C)(C)c1cc(C(C)(C)C)c(NC(=O)c2c[nH]c3ccccc3c2=O)cc1O	inactive
O=C(C=Cc1cccc(S(=O)(=O)Nc2ccccc2)c1)NO	1.36 µM (active)
Cc1ccc(C(=O)Nc2ccc(CN3CCN(C)CC3)c(C(F)(F)F)c2)cc1C#Cc1cnc2cccnn12	7.43 µM (active)
CS(=O)(=O)c1ccc(-c2cnc(N)c(C(=O)Nc3ccccc3)n2)cc1	inactive

Look at each compound and report its Potency.
1. COc1c(N2C[C@@H]3CCCN[C@H]3C2)c(F)cc2c(=O)c(C(=O)O)cn(C3CC3)c12
2. CN(C)CCCN=c1c2ccccc2n(C)c2[nH]c(=O)n(C)c(=O)c12

Ans.
1. inactive
2. 16.6 µM (active)
